Biological target: hGalR1 (Homo sapiens)
Sequence (P47211 whole entry): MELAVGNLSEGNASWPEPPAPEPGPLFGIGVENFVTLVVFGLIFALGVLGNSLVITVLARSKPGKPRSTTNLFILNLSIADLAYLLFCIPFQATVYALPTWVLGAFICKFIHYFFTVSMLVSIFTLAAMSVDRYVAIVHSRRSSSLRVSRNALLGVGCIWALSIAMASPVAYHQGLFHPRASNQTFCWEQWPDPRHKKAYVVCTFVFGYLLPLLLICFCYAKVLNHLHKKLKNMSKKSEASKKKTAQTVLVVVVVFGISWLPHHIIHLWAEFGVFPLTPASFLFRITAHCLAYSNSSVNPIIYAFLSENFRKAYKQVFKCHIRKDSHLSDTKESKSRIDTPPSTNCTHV
Assay: SRE-Luc receptor activation assay, hGalR1
Format: cell-based
Conditions: HEK293 cells transfected with hGalR1, Gqi, SRE-Luc; 6 h treatment; full-dose
Positions of bridges follow the written chain, without caps; N, C: chain ends. Residues, ends and D or L forms follow the SMILES beside them.
experimental.readout: hGalR1 EC50

>>> assay_result("CSCC[C@H](NC(=O)[C@H](C)NC(=O)[C@H](CCC(N)=O)NC(=O)[C@H](CS)NC(=O)[C@@H](NC(=O)[C@H](Cc1c[nH]c2ccccc12)NC(=O)[C@@H](N)CC(N)=O)[C@@H](C)O)C(=O)N[C@@H](CC(C)C)C(=O)N[C@@H](Cc1ccc(O)cc1)C(=O)N[C@@H](CC(C)C)C(=O)N[C@@H](CCCCN)C(=O)NCC(=O)N[C@@H](C)C(=O)N[C@@H](CCC(N)=O)C(N)=O [hSPX (C4)] (H-NWTCQAMLYLKGAQ-NH2; N-terminus assumed)")
"N.M."
>>> assay_result("CSCC[C@@H]1NC(=O)[C@H](C)NC(=O)[C@H](CCC(N)=O)NC(=O)[C@@H](NC(=O)[C@@H](NC(=O)[C@H](Cc2c[nH]c3ccccc23)NC(=O)[C@@H](N)CC(N)=O)[C@@H](C)O)CSSC[C@@H](C(=O)N[C@@H](CCC(N)=O)C(N)=O)NC(=O)CNC(=O)[C@H](CCCCN)NC(=O)[C@H](CC(C)C)NC(=O)[C@H](Cc2ccc(O)cc2)NC(=O)[C@H](CC(C)C)NC1=O [LH102] (H-NWTCQAMLYLKGCQ-NH2; disulfide 4-13; N-terminus assumed)")
"N.M."

====

Target: hGalR3 (Homo sapiens)
Construct: host or cells: HEK293
Sequence (O60755 whole entry): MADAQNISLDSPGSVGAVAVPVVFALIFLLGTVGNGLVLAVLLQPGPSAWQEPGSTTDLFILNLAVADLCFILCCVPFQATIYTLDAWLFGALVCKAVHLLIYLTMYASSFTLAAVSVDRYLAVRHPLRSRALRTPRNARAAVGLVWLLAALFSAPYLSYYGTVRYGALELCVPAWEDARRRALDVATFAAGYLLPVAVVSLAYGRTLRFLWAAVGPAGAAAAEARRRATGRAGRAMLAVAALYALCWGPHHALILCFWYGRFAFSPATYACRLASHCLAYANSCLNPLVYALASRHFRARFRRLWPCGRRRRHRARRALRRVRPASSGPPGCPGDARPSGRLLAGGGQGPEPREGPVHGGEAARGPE
Assay: SRE-Luc receptor activation assay, hGalR3
Assay type: cell-based
Details: Relative to hSPX Emax
Positions of bridges follow the written chain, without caps; N, C: chain ends. Residues, ends and D or L forms follow the SMILES beside them.
Tick Condition met if hGalR3 Emax is 1 or greater. Tick Condition not met if hGalR3 Emax is less than 1.

>>> label("CSCC[C@H](NC(=O)[C@H](C)NC(=O)[C@H](CCC(N)=O)NC(=O)[C@H](CS)NC(=O)[C@@H](NC(=O)[C@H](Cc1c[nH]c2ccccc12)NC(=O)[C@@H](N)CC(N)=O)[C@@H](C)O)C(=O)N[C@@H](CC(C)C)C(=O)N[C@@H](Cc1ccc(O)cc1)C(=O)N[C@@H](CC(C)C)C(=O)N[C@@H](CCCCN)C(=O)NCC(=O)N[C@@H](C)C(=O)N[C@@H](CCC(N)=O)C(N)=O [hSPX (C4)] (H-NWTCQAMLYLKGAQ-NH2; N-terminus assumed)")
"Condition not met"
>>> label("CSCC[C@H](NC(=O)[C@H](C)NC(=O)[C@H](CCC(N)=O)NC(=O)[C@@H]1CCCN1C(=O)[C@@H](NC(=O)[C@H](Cc1c[nH]c2ccccc12)NC(=O)[C@@H](N)CC(N)=O)[C@@H](C)O)C(=O)N[C@@H](CC(C)C)C(=O)N[C@@H](Cc1ccc(O)cc1)C(=O)N[C@@H](CC(C)C)C(=O)N[C@@H](CCCCN)C(=O)NCC(=O)N[C@@H](CS)C(=O)N[C@@H](CCC(N)=O)C(N)=O [hSPX (C13)] (H-NWTPQAMLYLKGCQ-NH2; N-terminus assumed)")
"Condition not met"
>>> label("CSCC[C@@H]1NC(=O)[C@H](C)NC(=O)[C@H](CCC(N)=O)NC(=O)[C@@H]2CCCN2C(=O)[C@H]([C@@H](C)O)NC(=O)[C@H](Cc2c[nH]c3ccccc23)NC(=O)[C@@H](N)CSSC[C@@H](C(=O)N[C@@H](CCC(N)=O)C(N)=O)NC(=O)CNC(=O)[C@H](CCCCN)NC(=O)[C@H](CC(C)C)NC(=O)[C@H](Cc2ccc(O)cc2)NC(=O)[C@H](CC(C)C)NC1=O [LH101] (H-CWTPQAMLYLKGCQ-NH2; disulfide 1-13)")
"Condition met"
>>> label("CC(C)C[C@@H]1NC(=O)[C@H](CC(C)C)NC(=O)[C@H](Cc2ccc(O)cc2)NC(=O)CNC(=O)[C@H](C)NC(=O)[C@H](CO)NC(=O)[C@H](CC(N)=O)NC(=O)[C@H](CC(C)C)NC(=O)[C@H]([C@@H](C)O)NC(=O)[C@H](Cc2c[nH]c3ccccc23)NC(=O)[C@@H](N)CSSC[C@@H](C(=O)N[C@@H](Cc2c[nH]cn2)C(=O)N[C@@H](C)C(=O)N[C@H](C(N)=O)C(C)C)NC(=O)CNC1=O [LH201] (H-CWTLNSAGYLLGCHAV-NH2; disulfide 1-13)")
"Condition not met"
>>> label("CC(=O)N[C@H]1CSSC[C@@H](C(=O)N[C@@H](Cc2c[nH]cn2)C(=O)N[C@@H](C)C(=O)N[C@H](C(N)=O)C(C)C)NC(=O)CNC(=O)[C@H](CC(C)C)NC(=O)[C@H](CC(C)C)NC(=O)[C@H](Cc2ccc(O)cc2)NC(=O)CNC(=O)[C@H](C)NC(=O)[C@H](CO)NC(=O)[C@H](CC(N)=O)NC(=O)[C@H](CC(C)C)NC(=O)[C@H]([C@@H](C)O)NC(=O)[C@H](Cc2c[nH]c3ccccc23)NC1=O [LH201 (Ac)] (Ac-CWTLNSAGYLLGCHAV-NH2; disulfide 1-13)")
"Condition not met"
